Data origin, for the record: ChEMBL document CHEMBL1201862

Listing: GI50 of selected molecules
- Tested on: UACC-62
- METHOD_NOTES: NCI tumour cell line growth inhibition, 48 h
Active and inactive are the calls of the source. No stated cut-off is given here; in the data, active = GI50 up to about 1.1 µM and inactive = higher.

OC1CCCCCCCCCCC1SCCCCl (centres undefined): > 100 µM (inactive)
O=C1c2ccccc2C(=O)N1CCN(CCN1C(=O)c2ccccc2C1=O)Cc1ccccc1: 36.7 µM (inactive)
CC(C)(C)OC(=O)C1CC[C@@H](CC(=O)Oc2ccc([N+](=O)[O-])cc2)N1 (some centres undefined): > 100 µM (inactive)
CC(=O)O[C@H]1C(=O)[C@@]2(C)[C@H]([C@H](OC(=O)c3ccccc3)[C@]3(O)C[C@H](OC(=O)[C@H](OC(=O)OCCC(O)CO)[C@@H](NC(=O)c4ccccc4)c4ccccc4)C(C)=C1C3(C)C)[C@]1(OC(C)=O)CO[C@@H]1C[C@@H]2O (some centres undefined): < 0.01 µM (active)
Cc1ncc([N+](=O)[O-])n1CCN(C)CCCCn1ccnc1[N+](=O)[O-]: > 100 µM (inactive)

Q: Given Cc1ccc(C(=O)Nc2ccc(CP(=O)(O)O)cc2CP(=O)(O)O)cc1NC(=O)c1cccc(N)c1 , respond with its GI50.
Ans: > 100 µM (inactive)

Q: Given COC(=O)c1[nH]c(=S)[nH]c(=O)c1-c1ccc(Cl)cc1 , respond with its GI50.
Ans: > 50 µM (inactive)

Q: Given CCOP(=O)(CCCC(O)CNc1cc(Cl)nc(N)n1)OCC (centres undefined) , respond with its GI50.
Ans: > 100 µM (inactive)

* * *

- Test system: LOX IMVI
- METHOD_NOTES: NCI tumour cell line growth inhibition, 48 h
Activity calls are given as the source filed them. Cut-off read from the data, not from the text of the source: active = GI50 up to about 1.1 µM and inactive = higher.
# output must be one of active, inactive

Examples with answers:
CCc1[nH]nc(C(N)=O)c1/N=N/N(C)C: inactive
N#C/C=C1\C=CC(O)C(O)C1OC1OC(CO)C(O)C(O)C1O (stereo unspecified): inactive
Cc1ccc(-n2c(C)nc3c2C(=O)c2ccccc2C3=O)cc1: inactive

Q: I'd appreciate the recorded outcome for OC1C2CCC1C1C3C=CC(C3)C21 (stereo unspecified) from this test.
Ans: inactive

Q: I'd appreciate the recorded outcome for CN1CC[C@]2(C)c3c(O)cccc3CC3CCCC1C32C (stereo partly specified) from this test.
Ans: inactive

Q: I'd appreciate the recorded outcome for COc1ccc2[nH]c3c(C)c4ccncc4c(C)c3c2c1 from this test.
Ans: active

Q: I'd appreciate the recorded outcome for Cc1c(NC(=S)NC(=O)c2ccc([N+](=O)[O-])cc2)c(=O)n(-c2ccccc2)n1C from this test.
Ans: inactive

Q: I'd appreciate the recorded outcome for COC(=O)C1(O)C(c2ccccc2)NC2(C)CCCC21 (stereo unspecified) from this test.
Ans: inactive

Q: I'd appreciate the recorded outcome for NC(=O)c1ccc(NS(=O)(=O)c2ccc(N)cc2)nc1 from this test.
Ans: inactive

Q: I'd appreciate the recorded outcome for COc1c2c(c3c(c1OC)c(=O)c1ccccc1n3C)OCO2 from this test.
Ans: inactive

Q: I'd appreciate the recorded outcome for NC1=NN(c2ccccc2)C(=O)C1C(=O)C(=O)NC1C2CC3CC(C2)CC1C3 (stereo unspecified) from this test.
Ans: inactive

* * *

- System: Hs-578T
- METHOD_NOTES: NCI tumour cell line growth inhibition, 48 h
Activity calls are given as the source filed them. Rule as the data show it: active = GI50 up to about 1.1 µM and inactive = higher.
# output must be one of Y = active, N = inactive

Examples with answers:
N#CCSc1c(-c2ccccc2)c(=O)n(-c2ccccc2)c(=S)n1-c1ccccc1: N
CN(C)C(C1=C(O)C(c2ccccc2)N(c2ccccc2)C1=O)N1CCOCC1 (stereo not given): N
CCCCCC(=O)OCC1(CO)C/C(=C/CC(C(C)C)C(C)C)C(=O)O1 (stereo not given): N

Q: I'd appreciate the recorded outcome for COC(=O)[C@@H]1C[C@@]2(C3C=CN(C(=O)C(F)(F)F)C=C3)c3ccccc3N(C(=O)C(F)(F)F)[C@H]2N1C(=O)OC from this test.
Ans: N

Q: I'd appreciate the recorded outcome for COc1ccc(/C=C\c2cc(OC)c(OC)c(OC)c2)cc1OC(=O)CC(N)C(=O)O (stereo not given) from this test.
Ans: Y

Q: I'd appreciate the recorded outcome for COc1ccc(C2c3cc4c(cc3OC(NCCO)C2C)OCO4)cc1 (stereo not given) from this test.
Ans: N

Q: I'd appreciate the recorded outcome for CC1=CC(=O)/C(=C/N2CCNC2=S)C(=O)O1 from this test.
Ans: N

Q: I'd appreciate the recorded outcome for OC1CCCCCCCCCCC1SCCCCl (stereo not given) from this test.
Ans: N

Q: I'd appreciate the recorded outcome for CC(C)(C)[Si](C)(C)OCC1OC(n2cc(F)c(=O)[nH]c2=O)CC1O[Si](C)(C)C(C)(C)C (stereo not given) from this test.
Ans: N

Q: I'd appreciate the recorded outcome for CN(CCCN1CCCC1)CCCN(C)C(=O)Cc1ccc(Cl)c(Cl)c1 from this test.
Ans: N
